Reference source: the supplement of paper PMC9170038

Measured apparent KD of MS2 coat protein values are reported for all entries that follow.
System: MS2 coat protein
Assay Overview: apparent KD of MS2 coat protein; designed switch direction (-1 OFF switch, 1 ON switch): -1; higher = weaker reporter binding
Measurement Parameters: input ligand: FMN 200 uM
Quantity Name: apparent KD of MS2 coat protein (nM)

Biosequence | Recorded Number
UAACAAGCUUUAAGAUCCUACAUGAGGAUCACCCAUGUGCUCGUCUUGUAACGUACUGUGACGAAAGUCACGGUACG [JL TOV1 3.16] (Eterna round: R97, puzzle: Sensor, turn-off variant 1) | 236
AGAUCUAGGACAGGAUAUACAGAUGGCUUCAUCGAAGAUGAAGCCAUUACAUGAGGAUCACCCAUGUAGAAGGGUCCUAGAUCA [Omei Exc(NG) 2Av5] (Eterna round: R96, puzzle: Exclusion NG 2) | 17.7
AAGAAUCUAGGAUAUUAGCGGGCCUACAUGAGGAUCACCCAUGUCGUGUCGCGGGUAUGCUGAGAAGGAGAGCACA [EX5 B.5] (Eterna round: R97, puzzle: Exclusion 5) | 16.3

---

Test system: MS2 coat protein
Assay Overview: apparent KD of MS2 coat protein; designed switch direction (-1 OFF switch, 1 ON switch): -1; higher = weaker reporter binding
Measurement Parameters: Eterna round: R95; input ligand: none
Measured apparent KD of MS2 coat protein values are reported for all entries that follow.

Biosequence | apparent KD of MS2 coat protein
GAGUAGGUAGGAUAUACGAUAAUAUAGGGUAGAUAUAUAACACAUGAGGAUCACCCAUGUAGAAGGACCAGGAG [Mat - Exclusion 2 - Mod of my Tesla design - D63] (puzzle: Exclusion 2) | 36.6 nM
CUGGUCCGAGGAUAUAUGAUGUGAAACAUGAGGAUCACCCAUGUAAUAUUAUGGAAGAAAAUAGAAGGCGGACUAG [Mat - Exclusion 5 - JL mod - D38] (puzzle: Exclusion 5) | 71.5 nM
GGCAAUAACGAGGAUAUCCUAUGGGAAACCAUAGGAGAAGGUGUAACAUGAGGAUCACCCAUGUUCCUCAAGCC [Mat - Exclusion 6 - Eli Mod - D67] (puzzle: Exclusion 6) | 39.8 nM

---

System: MS2 coat protein
Assay Overview: apparent KD of MS2 coat protein; designed switch direction (-1 OFF switch, 1 ON switch): -1; higher = weaker reporter binding
Measurement Parameters: input ligand: none

Biosequence | apparent KD of MS2 coat protein / nM
AGCUGUGGCCGAGGAUAUACACAUGAGGAUCACCCAUGUAGGCGCGGAAACGCGCUAAAAGGGUUGUAGAAGGCGGUCUCAGCA [Eli eng2 - 054] (Eterna round: R96, puzzle: Exclusion NG 2) | 114
GUUGUUUAUGUAGGAUAUGCCUGGCGUGCCUUUGCAGAAGGACAUGAGGAUCACCCAUGUAUUGCGGUCUGCGUUCAGAUCGCC [salish99_ExNG1_r4_041] (Eterna round: R96, puzzle: Exclusion NG 1) | 25.2
UGUUGUUACGUAGGAUAUUGUCAACAGGCAGUAGGAUAUGCGAAAGCAGAAGGACCGCCAACAGGCGAGAAGGACGGGUUAACA [pwkr exNG2 2xF7 2xFMN.3] (Eterna round: R96, puzzle: Exclusion NG 2) | 42.7

---

Tested on: MS2 coat protein
Assay Overview: apparent KD of MS2 coat protein, switch ON state; designed switch direction (-1 OFF switch, 1 ON switch): -1; higher = weaker reporter binding
Measurement Parameters: FMN input: 0 or 200 uM; Eterna round: R93 (includes R88 designs)
Measured apparent KD of MS2 coat protein values are reported for all entries that follow.

Biosequence | System | apparent KD of MS2 coat protein, nM
AUAAAACAUGAGGAUCACCCAUGUGAGGAUAUGCUAAAAUAAAAUAAAAUAAAAUAAUGCAGAAGGCACAAAUA [Fancy Pants] | MS2 coat protein | 37.6
AGUCGGCGAGGAUAUACAUGAGGAUCACCCAUGUGAGAGAAAAAAGUGAGUUAGACAAGUAGAAGGCGCUGACA [JL Lego Mod 7] | MS2 coat protein | 44.1
CUCAUGUCAGGAUAUCAGUAGUAAAAAAAAAAAAUUACUACUGAGAAGGGACAUGAGGAUCACCCAUGUACCUU [EX4 302: Super Stable 2] | MS2 coat protein | 25.4
CUCAAGUUAGGAUAUGAAAGAAAAGAAGAGAAAGAAAAGAAUCAGAAGGAACAUGAGGAUCACCCAUGUAAGAA [EteRNA is fun!] | MS2 coat protein | 29.7
AAGAAGUCAGGAUAUCGAAGACUGUCGAAAAGACAGUCGAACGAGAAGGGACAUGAGGAUCACCCAUGUGGAAA [Marsurpial 65% 7] | MS2 coat protein | 56.3
AAAGAGUGAGGAUAUUCGGAUAGGAAAACGAAAACCUAUCCGAAGAAGGCACAUGAGGAUCACCCAUGUAAAAA [67% Ecls-II - Early G segment 2] | MS2 coat protein | 37.3
